- test.details: method code SF-AS, from DOI: 10.1135/cccc19822514
- experimental.conditions: pH 3.5
endpoint.name: logD

>>> numeric_result("O=C(O)CCc1ccccc1")
1.91
>>> numeric_result("CC(C(=O)O)c1ccccc1 (configuration not stated)")
1.8

----------
- test.details: method code SF-AS, from DOI: 10.1248/cpb.26.2832
endpoint.name: logP

>>> numeric_result("CC(=O)[C@H]1CC[C@H]2[C@@H]3CCC4=CC(=O)CC[C@]4(C)[C@H]3C(O)C[C@]12C (stereo partly specified)")
2.36

----------
- test.details: method code SF, from DOI: 10.1038/bjc.1982.190, PMID: 7150475
endpoint.name: logP

>>> numeric_result("O=[N+]([O-])c1nccn1CC(O)CN1CCCCC1 (stereo unspecified)")
0.93

----------
- test.details: method code SF-GLC, from DOI: 10.1021/jm00366a019, PMID: 6644745
- experimental.conditions: pH 12.0
endpoint.name: logD

>>> numeric_result("N[C@@H]1C[C@@H]2C[C@H]1c1ccc(C(F)(F)F)cc12")
3.21

----------
- test.details: method code SF-HPLC, from DOI: 10.1002/ps.2780130506
endpoint.name: logP

>>> numeric_result("CNC(=O)ON=Cc1ccc(Cl)c(Cl)c1")
2.89

----------
Each entry below lists one item and its recorded logD value.
- test.details: method code SF-HPLC, from DOI: 10.1016/j.bmc.2009.01.040, PMID: 19208447
- experimental.conditions: pH 7.0
endpoint.name: logD

>>> numeric_result("O=C(c1ccccc1)c1cccc(C(O)C(=O)OCC2OC(OC3OC(CO)C(O)C(O)C3O)C(O)C(O)C2O)c1 (configuration not stated)")
-0.25
>>> numeric_result("CC(C(=O)OCC(O)C(OC1OC(CO)C(O)C(O)C1O)C(O)C(O)C=O)c1cccc(C(=O)c2ccccc2)c1 (configuration not stated)")
-0.13

----------
endpoint.name: logP

>>> numeric_result("c1ccc2c(c1)-c1cccc3c1c-2cc1ccccc13")
6.06

----------
Each entry below lists one item and its recorded logP value.
endpoint.name: logP

>>> numeric_result("CCCCc1c(C)oc(=O)c(CCCC)c1O")
0.79
>>> numeric_result("CCCCCC(C=O)(CCCC)c1oc(=O)c(CCCC)c(O)c1CCCC (configuration not stated)")
1.52

----------
- test.details: method code SF-AS, from DOI: 10.1021/jm020389w, PMID: 12620073
- experimental.conditions: pH 7.4
endpoint.name: logD

>>> numeric_result("CCOC(=O)Nc1ccc2cc3ccc(N)c(CO)c3nc2c1")
1.55

----------
- test.details: method code SF-GLC, from DOI: 10.1016/s0003-2670(00)84505-5
endpoint.name: logP

>>> numeric_result("COc1cc(Cl)c(Cl)cc1O")
3.19
>>> numeric_result("COc1c(O)c(Cl)c(Cl)c(Cl)c1Cl")
4.42

----------
- test.details: method code SF-AS, from PMID: 3774812
- experimental.conditions: pH 4.0
endpoint.name: logD

>>> numeric_result("Cc1c(CC(=O)O)sc2ccc(Cl)cc12")
3.12

----------
- test.details: method code SF-AS, from PMID: 7460030
- experimental.conditions: pH 7.3
endpoint.name: logD

>>> result("CCCCCCCOc1cccc(NC(=O)OC2CCCCC2n2ccnc2)c1 (stereo unspecified)")
5.64
